target: JAK1 (recombinant purified GST-tagged catalytic domain) (Homo sapiens (Human), UniProt P23458); assay: biochemical
Sequence (P23458 875-1153): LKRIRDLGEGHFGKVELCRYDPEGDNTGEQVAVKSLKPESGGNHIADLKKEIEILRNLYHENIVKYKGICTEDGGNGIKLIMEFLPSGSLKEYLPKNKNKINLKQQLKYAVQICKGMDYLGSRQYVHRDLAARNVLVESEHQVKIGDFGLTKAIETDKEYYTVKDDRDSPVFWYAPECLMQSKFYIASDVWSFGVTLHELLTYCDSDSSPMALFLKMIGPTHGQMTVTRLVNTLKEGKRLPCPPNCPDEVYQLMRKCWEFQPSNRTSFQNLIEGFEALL
// values below are reported IC50
Use nM as the unit, but write only the number.

Solved entries:
CC(C)NS(=O)(=O)c1ccc(Nc2nn([C@H]3CCCC[C@@H]3C#N)cc2C(N)=O)cc1 (single isomer, unassigned) :: 0.3
C[C@@]1(O)CC[C@H](n2cc(C(N)=O)c(Nc3ccc(Cl)c(F)c3)n2)[C@@H](C#N)C1 (single isomer, unassigned) :: 5

Let us move to another entry and its IC50.
Entry under test: N#C[C@H]1C[C@@H](O)CC[C@@H]1n1cc(C(N)=O)c(Nc2ccc([C@H](O)C(F)(F)F)cc2)n1 (single isomer, unassigned) . Its IC50 was 0.3

---

// values below are reported pIC50
target: JAK2 (recombinant purified GST-tagged catalytic domain) (Homo sapiens (Human)); assay: biochemical
Scale: pIC50 equals -log10([C]), with [C] in mol/L.

Solved entries:
N#C[C@@H]1C[C@@H](OCC2CC2)CC[C@H]1n1cc(C(N)=O)c(Nc2ccc(F)cc2)n1 (single isomer, unassigned) :: 6.99
N#C[C@@H]1CCCC[C@H]1n1cc(C(N)=O)c(Nc2ccc(S(=O)(=O)N3CCC(Cc4ccccc4)CC3)cc2)n1 (single isomer, unassigned) :: 7.17
N#C[C@H]1CC(NCC(F)F)CC[C@@H]1n1cc(C(N)=O)c(Nc2ccc(S(=O)(=O)C(F)F)cc2)n1 (single isomer, unassigned) :: 8.22
CN(C)[C@@H]1CC[C@@H](n2cc(C(N)=O)c(Nc3ccc(C(F)(F)F)nc3)n2)[C@H](C#N)C1 (single isomer, unassigned) :: 6.40

Entry under test: N#Cc1ccc(Nc2nn([C@H]3CC[C@@H](O)C[C@@H]3C#N)cc2C(N)=O)cc1 (single isomer, unassigned) . Its pIC50 was 8.52

Entry under test: N#C[C@H]1CCCC[C@@H]1n1cc(C(N)=O)c(Nc2ccc(C(F)F)nc2)n1 (single isomer, unassigned) . Its pIC50 was 7.89

Entry under test: CC(N[C@@H]1CC[C@H](n2cc(C(N)=O)c(Nc3ccc(S(=O)(=O)C(F)(F)F)cc3)n2)[C@@H](C#N)C1)C1CC1 (single isomer, unassigned) . Its pIC50 was 7.37

Entry under test: N#C[C@H]1C[C@H](N2CCC2)CC[C@@H]1n1cc(C(N)=O)c(Nc2ccc([C@H](O)C(F)(F)F)cc2)n1 (single isomer, unassigned) . Its pIC50 was 7.92

Entry under test: N#C[C@H]1C[C@H](NCCC(F)(F)F)CC[C@@H]1n1cc(C(N)=O)c(Nc2ccc(S(=O)(=O)C(F)(F)F)cc2)n1 (single isomer, unassigned) . Its pIC50 was 7.09

Entry under test: N#C[C@H]1C[C@H](O)CC[C@@H]1n1cc(C(N)=O)c(Nc2ccc(C(F)(F)F)nc2)n1 (single isomer, unassigned) . Its pIC50 was 7.77

Entry under test: N#C[C@H]1C[C@@H](N2CCC2)CC[C@@H]1n1cc(C(N)=O)c(Nc2ccc(C=O)cc2)n1 (single isomer, unassigned) . Its pIC50 was 7.80

Entry under test: CCNC1CCC(n2cc(C(N)=O)c(Nc3ccc(S(=O)(=O)C(F)(F)F)cc3)n2)[C@@H](C#N)C1 (mixture of isomers) . Its pIC50 was 7.96

Entry under test: N#C[C@H]1C[C@H](O)CCC1n1cc(C(N)=O)c(Nc2ccccc2)n1 (mixture of isomers) . Its pIC50 was 7.15

Entry under test: N#C[C@H]1CCCC[C@@H]1n1cc(C(N)=O)c(Nc2ccc(S(=O)(=O)NCc3ccccn3)cc2)n1 (single isomer, unassigned) . Its pIC50 was 8.40

Entry under test: N#C[C@H]1C[C@@H](NCc2ccccc2)CC[C@@H]1n1cc(C(N)=O)c(Nc2ccnc(F)c2)n1 (single isomer, unassigned) . Its pIC50 was 8.05

---

target: JAK1 (recombinant purified GST-tagged catalytic domain) (Homo sapiens (Human), UniProt P23458); assay: biochemical;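 further: biochemical assay with HTRF read-out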
I'd appreciate it if you marked entries Satisfied when IC50 is lower than 0.8 nM and Not satisfied when it is not.

Below, 4 compounds whose answers are already recorded.
N#C[C@@H]1C[C@@H](NC2CC3(CCCC3)C2)CC[C@H]1n1cc(C(N)=O)c(Nc2ccc(C(F)(F)F)cc2)n1 (single isomer, unassigned) :: Not satisfied
CC1CN([C@H]2CC[C@H](n3cc(C(N)=O)c(Nc4ccc(C(F)(F)F)cc4)n3)[C@@H](C#N)C2)C1 (single isomer, unassigned) :: Not satisfied
N#C[C@H]1CCCC[C@@H]1n1cc(C(N)=O)c(Nc2ccc(OC(F)F)cc2)n1 (single isomer, unassigned) :: Satisfied
N#C[C@H]1C[C@@H](N2CCC2)CC[C@@H]1n1cc(C(N)=O)c(Nc2ccccc2)n1 (single isomer, unassigned) :: Satisfied

Switching to the query record.
Task: Please determine if N#C[C@H]1CCCC[C@@H]1n1cc(C(N)=O)c(Nc2ccc(C(F)(F)F)nc2)n1 (single isomer, unassigned) [Example 17-101] is below 0.8 nM in terms of IC50.
Output: Not satisfied

---

target: JAK2 (recombinant purified GST-tagged catalytic domain) (Homo sapiens (Human), UniProt O60674); assay: biochemical
Sequence (O60674 849-1124): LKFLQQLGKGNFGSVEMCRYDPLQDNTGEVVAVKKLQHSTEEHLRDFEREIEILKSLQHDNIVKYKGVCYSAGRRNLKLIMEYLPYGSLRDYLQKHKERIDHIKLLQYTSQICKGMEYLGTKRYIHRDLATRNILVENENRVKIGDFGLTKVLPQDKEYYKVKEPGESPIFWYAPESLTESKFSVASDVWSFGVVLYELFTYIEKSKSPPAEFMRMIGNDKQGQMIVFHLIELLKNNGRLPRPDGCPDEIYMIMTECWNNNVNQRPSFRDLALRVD
// values below are reported IC50
Use nM as the unit, but write only the number.

Solved entries:
CN(CC(F)(F)F)[C@H]1CCC(n2cc(C(N)=O)c(Nc3ccnc(F)c3)n2)[C@@H](C#N)C1 (single isomer, unassigned) [Example 28-233] :: 6
N#C[C@H]1C[C@H](O)CC[C@@H]1n1cc(C(N)=O)c(Nc2ccc(C(F)(F)F)cc2)n1 (single isomer, unassigned) [Example 25-5] :: 10
CN(C)[C@@H]1CC[C@H](n2cc(C(N)=O)c(Nc3ccc(C(F)(F)F)nc3)n2)[C@@H](C#N)C1 (single isomer, unassigned) [Example 28-25] :: 155

Entry under test: C[C@H](N[C@H]1CC[C@H](n2cc(C(N)=O)c(Nc3ccc(Cl)c(F)c3)n2)[C@@H](C#N)C1)C1CC1 (single isomer, unassigned) [Example 28-71] . Its IC50 was 97

---

molecular target: JAK2 (recombinant purified GST-tagged catalytic domain) (Homo sapiens (Human), UniProt O60674); test: biochemical
assay-endpoint: log10 IC50 (log10 of the value in nM)
Use the decimal logarithm of IC50 (nM).

Solved entries:
N#C[C@H]1CCCC[C@@H]1n1cc(C(N)=O)c(Nc2ccc(S(=O)(=O)C(F)(F)F)c(CO)c2)n1 (racemic) :: 0.70
CN[C@H]1CCC(n2cc(C(N)=O)c(Nc3ccc(F)cc3)n2)[C@@H](C#N)C1 (mixture of isomers) :: 1.75

Entry under test: CO/N=C(\C)c1ccc(Nc2nn([C@H]3CCCC[C@@H]3C#N)cc2C(N)=O)cc1 (single isomer, unassigned) . Its log10 IC50 was 0.30

Entry under test: N#C[C@H]1CCCC[C@@H]1n1cc(C(N)=O)c(Nc2ccnnc2)n1 (single isomer, unassigned) . Its log10 IC50 was 1.45

Entry under test: N#C[C@H]1C[C@@H](N2CCC2)CC[C@@H]1n1cc(C(N)=O)c(Nc2ccc(C(F)(F)F)cc2)n1 (single isomer, unassigned) . Its log10 IC50 was 1.36

Entry under test: N#C[C@H]1CC(NCC(=O)O)CC[C@@H]1n1cc(C(N)=O)c(Nc2ccc(S(=O)(=O)C(F)(F)F)cc2)n1 (single isomer, unassigned) . Its log10 IC50 was 0.00

Entry under test: C[C@@H](N[C@H]1CC[C@H](n2cc(C(N)=O)c(Nc3ccc(S(=O)(=O)C(F)(F)F)cc3)n2)[C@@H](C#N)C1)C1CC1 (single isomer, unassigned) . Its log10 IC50 was 1.08

Entry under test: Cn1cc(-c2cncc(Nc3nn(C4CCCC[C@@H]4C#N)cc3C(N)=O)c2)cn1 (single isomer, unassigned) . Its log10 IC50 was 1.86

Entry under test: N#C[C@H]1C[C@@H](OC(=O)Nc2ccccc2)CCC1n1cc(C(N)=O)c(Nc2ccc(F)cc2)n1 (mixture of isomers) . Its log10 IC50 was 2.03

Entry under test: N#C[C@H]1CCCC[C@@H]1n1cc(C(N)=O)c(Nc2ccc(C(F)(F)F)nc2)n1 (single isomer, unassigned) [Example 17-109] . Its log10 IC50 was 2.41

Entry under test: N#C[C@H]1CCCC[C@@H]1n1cc(C(N)=O)c(Nc2cnc3c(c2)CNC3=O)n1 (single isomer, unassigned) . Its log10 IC50 was 0.85

Entry under test: CN(C)[C@H]1CC[C@H](n2cc(C(N)=O)c(Nc3ccc(Cl)c(F)c3)n2)[C@@H](C#N)C1 (single isomer, unassigned) . Its log10 IC50 was 1.76

---

// values below are reported pIC50
molecular target: JAK2 (recombinant purified GST-tagged catalytic domain) (Homo sapiens (Human), UniProt O60674); assay: biochemical;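 further: biochemical JAK kinase assay with HTRF detection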
Scale: pIC50 equals -log10([C]), with [C] in mol/L.

CS(=O)(=O)C1CN(C(=O)[C@@H]2CC[C@@H](n3cc(C(N)=O)c(Nc4ccc(Cl)cc4)n3)[C@H](C#N)C2)C1 (single isomer, unassigned) [Example 35-8] :: 7.72

Let us move to another entry and its pIC50.
Entry under test: N#C[C@H]1C[C@@H](O)CC[C@@H]1n1cc(C(N)=O)c(Nc2ccc(Cl)nc2)n1 (single isomer, unassigned) [Example 33-14] . Its pIC50 was 7.85
